Reported glycan array binding signal (z-score) is given for each of the following binders.
TARGET_OF_ASSAY: Gal4S6S(b1-4)GlcNAc
ASSAY_PROCEDURE: glycan array binding signal (z-score within array); higher = stronger binding
RUN_PARAMETERS: glycan notation: IUPAC condensed, linker removed
Shown is part of a subset that was picked to be rich in the strongest signals.
MEASURED_METRIC: glycan array binding signal (z-score)

* BC2L-D C-terminal domain (Burkholderia cenocepacia), Q39MQ9_BURS3 (protein) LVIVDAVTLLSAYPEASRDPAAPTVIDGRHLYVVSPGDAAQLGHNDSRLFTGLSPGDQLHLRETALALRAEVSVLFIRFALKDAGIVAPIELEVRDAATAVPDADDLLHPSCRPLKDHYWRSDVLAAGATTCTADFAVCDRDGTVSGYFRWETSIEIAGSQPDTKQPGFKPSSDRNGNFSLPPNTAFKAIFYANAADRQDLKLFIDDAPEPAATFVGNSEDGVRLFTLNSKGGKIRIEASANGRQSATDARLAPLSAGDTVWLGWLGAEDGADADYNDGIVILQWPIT | -0.243
* RfpB (Mycobacterium tuberculosum), O05594 (protein) MAAGLVTASMSLSTAVAHAGPSPNWDAVAQCESGGNWAANTGNGKYGGLQFKPATWAAFGGVGNPAAASREQQIAVANRVLAEQGLDAWPTCGAASGLPIALWSKPAQGIKHAGPSPNWDAVAQCESGGNWAANTGNGKYGGLQFKPATWAAFGGVGNPAAASREQQIAVANRVLAEQGLDAWPTCGA | 0.03
